protocol: soluble on expression in E. coli; label from the status in PepcDB or PDB records
assay_metric: soluble on expression in E. coli

Consider the following illustrative entries.
[[record]]
primary_sequence = "MGKFLVQFWGVRGLIPTPSSNTSRYGGNTACVEMQVAGKRLIFDGGTGLRILGKAWQHLQQPLEAHLFFTNSQSNRIQGFPFFAPAFIAGNCFHIYGGAASNGASIKQCLCDQMLQPHFPYPLQVMQSELQFYPLTPDSEVKLDDVTIRTALINQTQRSIGYRVTWQEYSVAYVTDLNMSAEQGEREQVLQIIQDVDLLIANATYTPPTSHDHESVDLLWQAAVEMAQKAGVRKLIISHHHPDDHDDFLDQVEKEVQSTFSDALLACEGLALPVFLEHHHHHH"
assay_metric = "soluble on expression in E. coli"
result = "not soluble"

[[record]]
primary_sequence = "MIVNKPQFDENELGEGTAVQVTSGNPFGRPNYSNNKHDWNAVVVEFSPLMISVAGYNKEEHDRVETMNITIDSIVKEHVTLKKLVVELPKIQCEAGPEND"
assay_metric = "soluble on expression in E. coli"
result = "not soluble"

[[record]]
primary_sequence = "NGAFFCNECDCRFSEEASLKRHTLQTHSDK"
assay_metric = "soluble on expression in E. coli"
result = "soluble"

[[record]]
primary_sequence = "MTDMDPSNMTGGPMNGHSAEKSSEEKKSPRSSRGVGEDLKNAGKDAMNTMENAGKNAWDKAGELGKSGINTVQSAGSAVKNGAKDLAGKVDKAL"
assay_metric = "soluble on expression in E. coli"
result = "soluble"


Turning now to a further record.
Exercise: Fill blank: measured soluble on expression in E. coli of the sequence MSTGANLLVMNDTCKSNRWWKTKQEKKHSEIKKVKTLKSTWDKKMELKAKKDMVKRVQDNIREKQVQERQEKKERKVEQEKRRLENERKAEIVQKITKIHKLKKTKKRQLRSIQMRDTTQVTK is ____.
Solution: not soluble
